Experiment: Terminal half life in rat plasma at 1 mg/kg, iv or 2 mg/kg, po by LC/MS/MS analysis
Type: ADME, organism-based
Conditions: read-out: beta t1/2 (converted)
readout_kind: half-life (h)
Give bare numbers, in h.

Request: Which half-life reading was recorded for the molecule `CO[C@H]1C[C@H](Oc2cc(F)c(F)c(-c3ccc4c(c3)CC[C@H](CCC(=O)O)O4)n2)C1` ?
Result: 4.6

---

Assay: Terminal half life in mouse plasma at 2 mg/kg, iv or 30 mg/kg, po by LC/MS/MS analysis
Format: ADME, organism-based
Conditions: read-out: beta t1/2 (converted)
readout_kind: half-life (h)
Give bare numbers, in h.

Request: Record request: half-life value, item `CO[C@H]1C[C@H](Oc2cc(F)c(F)c(-c3ccc4c(c3)CC[C@H](CCC(=O)O)O4)n2)C1`
Result: 3
